# Tested on: C. elegans complex IV (cytochrome C oxidase)
# protocol.summary: In vitro complex IV activity assay, C. elegans mitochondria
# Format: biochemical, Caenorhabditis elegans
# measurement.context: 100 µM compound, relative to solvent control, mean (SEM)
measurement.label: % Activity Complex IV

Study these solved cases before continuing.
# compound, % Activity Complex IV
measured = [
    ("Cc1cc(O)c(C(=O)/C=C/c2ccc(C(C)C)cc2)c(=O)o1 [NPD6240]", "26.82 (0.75) %"),
    ("COc1ccc(-c2cc(=Nc3ccccc3N)c3ccccc3o2)cc1 [NPD6380]", "115.38 (4.42) %"),
    ("COc1cc2c(cc1OC)C(/C=C/c1ccc(N(C)C)cc1)=NCC2 [NPD6303]", "83.07 (1.76) %"),
    ("COc1cc2c(cc1OC)C(c1ccc(-c3ccc(Cl)c(Cl)c3)o1)=NCC2 [NPD3577]", "81.06 (2.34) %"),
    ("CCCCCCCCCCCCCCCc1cccc(O)c1C(=O)O [Anacardic acid]", "15.80 (1.15) %"),
]

Next:
The compound O=C(NCCc1ccc(Cl)cc1)c1ccccc1C(F)(F)F [Wact-11] showed % Activity Complex IV equal to 89.00 (0.63) %
